Data origin: PubChem BioAssay

assay: compound effects on differentiated 3T3-L1 adipocyte viability – cell-based, 3T3-L1 adipocytes, calcein-AM fluorescence, 48 h, basal, profiling panel (AID 1163); details: 3T3-L1 adipocytes viability, higher = more signal; note: test concentration not given here
Entries whose z-score is below 0.6 take TRUE; entries at or above 0.6 take FALSE.

{"compound": "CCOC(=O)C[C@H]1[C@H](OC(=O)c2ccc(C(=O)c3ccccc3)cc2)[C@@H](NC(=O)C2CCCCC2)c2cc(OCCCO)ccc2N1C(=O)Cc1ccc(OC)cc1", "classAssignment": "FALSE"}
{"compound": "CCOC(=O)C[C@H]1[C@H](OC(=O)Cc2ccc3c(c2)OCO3)[C@@H](NC(=O)c2ccccc2)c2cc(OCCCO)ccc2N1C(=O)c1ccc2ccccc2n1", "classAssignment": "FALSE"}
{"compound": "COc1ccccc1CN1C(=O)c2ccccc2[C@@H](C(=O)NCC(C)C)[C@@H]1c1ccc(CO)cc1", "classAssignment": "FALSE"}
{"compound": "CCOC(=O)C1=CCC(c2cccc(Cl)c2)O1 (stereo not given)", "classAssignment": "TRUE"}
{"compound": "O=C1C2C=CC(C(O)c3ccc(Br)cc3)N(Nc3ccccc3)C2C(=O)N1c1ccccc1 (stereo not given)", "classAssignment": "TRUE"}
{"compound": "O=C(CS)NCCCCCNC(=O)[C@@H]1C[C@@H]2C(=O)N3CCC[C@H]3C(=O)N2[C@@H]1c1ccc(O)cc1", "classAssignment": "TRUE"}
{"compound": "C=C(COC)C(=O)CC[C@H](OC(=O)c1ccccc1-c1ccccc1C(=O)O)c1ccc(OCCO)cc1", "classAssignment": "FALSE"}
{"compound": "NC(=O)[C@@H]1[C@H]2C(=O)O[C@H](c3ccccc3)[C@H](c3ccccc3)N2[C@H](c2ccccc2OCCO)[C@@]12C(=O)Nc1ccc(C#CCCO)cc12", "classAssignment": "FALSE"}
{"compound": "NC(=O)NCC#Cc1ccc2c(c1)[C@]1(C(=O)N2)[C@H](c2ccc(O)cc2)N2[C@H](c3ccccc3)[C@H](c3ccccc3)OC(=O)[C@H]2[C@@H]1C(N)=O", "classAssignment": "TRUE"}
{"compound": "CCOc1cc(C(O)C2C=CC3C(=O)NC(=O)C3N2Nc2ccccn2)ccc1O (stereo not given)", "classAssignment": "TRUE"}
{"compound": "O=C1NC(=O)C2C1C=CC(C(O)c1ccc3c(c1)OCO3)N2Nc1ccc(Cl)cc1Cl (stereo not given)", "classAssignment": "TRUE"}
{"compound": "Cc1ccccc1C(O)C1C=CC2C(=O)N(C)C(=O)C2N1Nc1ccc([N+](=O)[O-])cc1[N+](=O)[O-] (stereo not given)", "classAssignment": "TRUE"}
{"compound": "O=C1O[C@H](c2ccccc2)[C@H](c2ccccc2)N2[C@H]1[C@@H](C(=O)N1CCN(c3ncccn3)CC1)[C@]1(C(=O)Nc3ccc(C#CCCO)cc31)[C@H]2c1ccccc1OCCO", "classAssignment": "TRUE"}
{"compound": "C=C(COC)C(=O)CC[C@H](OC(=O)c1ccccc1-c1ccccc1C(=O)O)c1ccc(CO)o1", "classAssignment": "TRUE"}
